Tested target: 20S proteasome
Assay procedure: Inhibition of human 20S proteasome chymotrypsin-like activity using Suc-Leu-Leu-Val-Tyr-AMC as fluorogenic peptide pre-incubated for 10 mins with compound followed by substrate addition for 60 mins by spectrofluorimetric analysis
# pIC50 annotations
FYI, pIC50 means -log10 of a concentration in mol per litre.

So, CC(C)C[C@H](NC(=O)C(NC(=O)c1cc(C(F)(F)F)ccc1C(F)(F)F)C1CCCC1)B(O)O (some centres undefined) ? Its pIC50 was 8.22

So, CC(C)C[C@H](NC(=O)C(CC1CC1)NC(=O)c1cc(C(F)(F)F)ccc1C(F)(F)F)B(O)O (some centres undefined) ? Its pIC50 was 8.30

So, CC(C)C[C@H](NC(=O)CNC(=O)c1cc(Cl)ccc1Cl)B1OC2C3OC(CC3C(=O)O)C2(C)O1 (some centres undefined) ? Its pIC50 was 8.28

So, CC(C)C[C@H](NC(=O)C(CC1CC1)NC(=O)c1cc(C(F)(F)F)ccc1C(F)(F)F)B1OC2C3OC(CC3C(=O)O)C2(C)O1 (some centres undefined) ? Its pIC50 was 8.66

* * *

Assay procedure: Stability of the compound in stimulated […] fluid at pH 6.8 measured after 4 hrs
Assay type: ADME
Study conditions: simulated intestinal fluid, read-out: Stability
# strict inequality: remaining at 4 h < 20% yields fulfilled, everything else yields not fulfilled

The following compounds have reported results that may help.
CC(C)C[C@H](NC(=O)CNC(=O)c1cc(Cl)ccc1Cl)B1OC2C3OC(C4C(=O)NC(=O)C34)C2(C)O1 (some centres undefined)
fulfilled
CC(C)C[C@H](NC(=O)CNC(=O)c1cc(Cl)ccc1Cl)B1OC2C3OC(c4ccccc43)C2O1 (some centres undefined)
fulfilled
CC(C)C[C@H](NC(=O)C(NC(=O)c1cc(C(F)(F)F)ccc1C(F)(F)F)C1CC1)B1OC2C3OC(CC3C(=O)O)C2(C)O1 (some centres undefined)
fulfilled
CC(C)C[C@H](NC(=O)C(CC1CC1)NC(=O)c1cc(C(F)(F)F)ccc1C(F)(F)F)B1OC2C3OC(CC3C(=O)O)C2(C)O1 (some centres undefined)
fulfilled
CC(C)C[C@H](NC(=O)CNC(=O)c1cc(Cl)ccc1Cl)B(O)O [IXAZOMIB]
not fulfilled

Criterion: remaining at 4 h strictly below 20%. Is it met by CC(C)C[C@H](NC(=O)CNC(=O)c1cc(Cl)ccc1Cl)B1OC2(C)CCC(C(=O)O)CC2(C)O1 (some centres undefined) ?
not fulfilled

Criterion: remaining at 4 h strictly below 20%. Is it met by CC(C)C[C@H](NC(=O)CNC(=O)c1cc(Cl)ccc1Cl)B1OC2C3OC(CC3C(=O)O)C2(C)O1 (some centres undefined) ?
fulfilled

Criterion: remaining at 4 h strictly below 20%. Is it met by CC(C)C[C@H](NC(=O)CNC(=O)c1cc(Cl)ccc1Cl)B1OC2(C)CC3C(=O)NC(=O)C3CC2(C)O1 (some centres undefined) ?
fulfilled

* * *

Assay procedure: Stability of the compound in stimulated […] fluid at pH 1.2 measured after 8 hrs
Format: ADME
Study conditions: simulated gi fluid, pH 1.2, 8 h
# strict inequality: Stability < 60% yields label 1, everything else yields label 0

The following compounds have reported results that may help.
CC(C)C[C@H](NC(=O)CNC(=O)c1cc(Cl)ccc1Cl)B(O)O
label 0
CC(C)C[C@H](NC(=O)CNC(=O)c1cc(Cl)ccc1Cl)B1OC2(C)CCC(C(=O)O)CC2(C)O1 (some centres undefined)
label 0
CC(C)C[C@H](NC(=O)CNC(=O)c1cc(Cl)ccc1Cl)B1OC2(C)CC3C(=O)NC(=O)C3CC2(C)O1 (some centres undefined)
label 1
CC(C)C[C@H](NC(=O)CNC(=O)c1cc(Cl)ccc1Cl)B1OC2C3CC(C(=O)O)C(O3)C2O1 (some centres undefined)
label 0
CC(C)C[C@H](NC(=O)CNC(=O)c1cc(Cl)ccc1Cl)B1OC2C3OC(c4ccccc43)C2O1 (some centres undefined)
label 1

Criterion: Stability strictly below 60%. Is it met by CC(C)C[C@H](NC(=O)CNC(=O)c1cc(Cl)ccc1Cl)B1OC2C3OC(C4C(=O)NC(=O)C34)C2(C)O1 (some centres undefined) ?
label 0
